# Tested on: SK-MEL-28 melanoma
# experiment_summary: NCI-60 one-dose screen, 48 h (100 = growth as untreated, 0 = no growth, -100 = all killed)
# experimental_context: 10 µM unless noted
The panel holds about 83,000 compounds, 20% with a hit somewhere; the sample as a whole holds those more often.
Label y when growth is at or above 90%; otherwise label n.

*Q* Reported growth reaches at least 90% for CN(C)C(C(N)=O)c1ccc(Cl)cc1 (centres undefined) ?
*A* y

*Q* Reported growth reaches at least 90% for CC[C@@]12C=CCN3CC[C@]4(c5cc(NC(=O)COc6cc(OCC(=O)Nc7cc8c(cc7OC)N(C)[C@H]7[C@@](O)(C(=O)OC)[C@H](OC(C)=O)[C@]9(CC)C=CCN%10CC[C@]87[C@@H]%109)cc7oc(-c8ccccc8)cc(=O)c67)c(OC)cc5N(C)[C@@H]4[C@](O)(C(=O)OC)[C@H]1OC(C)=O)[C@H]32 ?
*A* y

*Q* Reported growth reaches at least 90% for c1ccc(C2CC(c3cccc(Nc4ccncc4)c3)=NN2c2ccccc2)cc1 (centres undefined) ?
*A* n

*Q* Reported growth reaches at least 90% for Cc1ccc(S(=O)(=O)Nc2ccc(Cl)cc2)cc1 ?
*A* y

*Q* Reported growth reaches at least 90% for Nc1ncc(C#Cc2cncc(NC(=O)c3cccc(C(F)(F)F)c3)c2)c2cccnc12 ?
*A* n

*Q* Reported growth reaches at least 90% for COc1cc(NCCCN(CC(C)C)CC(C)C)c2ncccc2c1 ?
*A* y

*Q* Reported growth reaches at least 90% for Clc1nc(Cl)c2ncn(CCOCCn3cnc4c(Cl)nc(Cl)nc43)c2n1 ?
*A* n

*Q* Reported growth reaches at least 90% for O=S(=O)(c1ccc(N/N=C\c2ccccc2)cc1)c1ccc(N/N=C/c2ccccc2)cc1 ?
*A* n

*Q* Reported growth reaches at least 90% for COc1ccc(/C=C/c2n[nH]c3ccc(N4CCOC4=O)cc23)cc1 ?
*A* n

*Q* Reported growth reaches at least 90% for Cc1cc(C)n(Nc2nc3ccccc3[nH]c2=O)c(=O)c1C#N ?
*A* y

*Q* Reported growth reaches at least 90% for Fc1ccc(C2CC(c3cccc(Nc4ccncc4)c3)=NN2c2cc(Cl)cc(Cl)c2)cc1 (centres undefined) ?
*A* n

*Q* Reported growth reaches at least 90% for O=C1Nc2ccccc2/C1=C\c1cccc(/C=C2/C(=O)Nc3ccccc32)n1 ?
*A* n

*Q* Reported growth reaches at least 90% for O=c1[nH]c(=O)[nH]c(=S)[nH]1 ?
*A* y

*Q* Reported growth reaches at least 90% for COc1ccc(C(O)c2cc3c(N)c(C(=O)Nc4ccc(Br)cc4)sc3nc2C)cc1 (centres undefined) ?
*A* n

*Q* Reported growth reaches at least 90% for COc1ccc(C2CC(n3nnnc3-c3ccccc3)=NN2)cc1 (centres undefined) ?
*A* y

*Q* Reported growth reaches at least 90% for O=C1c2cccnc2C(=O)c2nc3cc(N4CCN(C5CC5)CC4)ccc3nc21 ?
*A* n

*Q* Reported growth reaches at least 90% for COc1ccc(C(=O)c2cc3c(N)c(C(=O)Nc4cccc5ccccc45)sc3nc2C)cc1 ?
*A* n

*Q* Reported growth reaches at least 90% for CN1CCN(c2ccc(NC3=C(Cl)C(=O)c4ncccc4C3=O)cc2C#N)CC1 ?
*A* n

*Q* Reported growth reaches at least 90% for CC(C)(O)C1CCCN1C(=O)c1ccccc1I (centres undefined) ?
*A* y

*Q* Reported growth reaches at least 90% for COc1ccc(C2=NN(C(C)=O)C(c3cn(Cc4ccc(Cl)cc4)c4ccccc34)C2)cc1 (centres undefined) ?
*A* y

*Q* Reported growth reaches at least 90% for COc1ccc(C(=O)/C=C/c2cn(Cc3ccc(Cl)cc3)c3ccccc23)cc1 ?
*A* n

*Q* Reported growth reaches at least 90% for O=C(Nc1ccc(Cl)cc1)Nc1ccc(Cl)c(Cl)c1 ?
*A* n

*Q* Reported growth reaches at least 90% for CC1(C)[C@H](O)CC[C@]2(C)[C@@H]1CC[C@@]13C[C@@H](CC[C@H]12)[C@@](O)(CO)C3 ?
*A* y

*Q* Reported growth reaches at least 90% for C=Cc1cc[n+](CCCCCCCCCCCC)cc1 ?
*A* y

*Q* Reported growth reaches at least 90% for COc1ccc(C(O)c2cc3c(N)c(C(=O)Nc4cccc(Br)c4C)sc3nc2C)cc1 (centres undefined) ?
*A* n

*Q* Reported growth reaches at least 90% for Clc1ccc2c(c1)c(-c1ccccc1)nc1nncn12 ?
*A* y

*Q* Reported growth reaches at least 90% for Cc1nccc2c3ccc(OCc4cn(-c5ccc(Cl)cc5)nn4)cc3n(CCCc3ccccc3)c12 ?
*A* n

*Q* Reported growth reaches at least 90% for CCN(CC)CCCCCCNc1cc(OC)cc2cccnc12 ?
*A* n

*Q* Reported growth reaches at least 90% for COc1ccc(/C=C/C(=O)c2ccc(OC)c(OC)c2)cc1O ?
*A* y

*Q* Reported growth reaches at least 90% for O=C(N/N=C/c1ccncc1)c1ccccc1Nc1cccc(C(F)(F)F)c1 ?
*A* y

*Q* Reported growth reaches at least 90% for COc1cnccc1-c1nc2ccc3[nH]ncc3c2c2c1CCCC2 ?
*A* n

*Q* Reported growth reaches at least 90% for CCCN=C(N)c1ccc(NC(=O)c2ccc(C(=O)Nc3ccc(C(N)=NCCC)cc3)cc2)cc1 ?
*A* y

*Q* Reported growth reaches at least 90% for C=C(C)[C@@H]1CC[C@]2(C(=O)O)CC[C@]3(C)[C@H](CC[C@@H]4[C@@]5(C)C[C@@H](CC#Cc6ccc(Br)cc6)C(=O)C(C)(C)[C@@H]5CC[C@]43C)[C@@H]12 ?
*A* n

*Q* Reported growth reaches at least 90% for COc1ccc(/C=C\c2nc3ccccc3s2)cc1OP(=O)(O)O ?
*A* n

*Q* Reported growth reaches at least 90% for C/C(=C(/c1ccccc1)c1ccc(OCC(O)CNCCN2CCOCC2)cc1)c1ccccc1 (centres undefined) ?
*A* n

*Q* Reported growth reaches at least 90% for CC1=CC2(C)/C=C(C)/C=C\CC(O)/C=C3/C=CC(=C4C(=O)OC2(CC1C)C4=O)OC3 (centres undefined) ?
*A* n

====

Task for the reader: assign each of the following molecules its reported growth.
# Test system: LOX IMVI melanoma
# experiment_summary: NCI-60 one-dose screen, 48 h (100 = growth as untreated, 0 = no growth, -100 = all killed)
# experimental_context: 10 µM unless noted
This is part of a sample that, as a whole, favours compounds with a hit. Of some 83,000 tested, about 20% had one in any assay.
// note: answer is a bare numeric in %

*Q* Item: CC[C@@]12C=CCN3CC[C@]4(c5cc(NC(=O)COc6cc(OCC(=O)Nc7cc8c(cc7OC)N(C)[C@H]7[C@@](O)(C(=O)OC)[C@H](OC(C)=O)[C@]9(CC)C=CCN%10CC[C@]87[C@@H]%109)cc7oc(-c8ccccc8)cc(=O)c67)c(OC)cc5N(C)[C@@H]4[C@](O)(C(=O)OC)[C@H]1OC(C)=O)[C@H]32 Test system: LOX IMVI melanoma Read-out: growth Value: ?
*A* 7.97

*Q* Item: CC(=O)OCC(=O)[C@@]1(O)CC[C@H]2[C@@H]3CC(=C(Br)Br)C4=CC(=O)CC[C@]4(C)[C@H]3C(=O)C[C@@]21C Test system: LOX IMVI melanoma Read-out: growth Value: ?
*A* 97.3

*Q* Item: Cn1ncc2c(Nc3ccccc3Cl)nc(Cl)nc21 Test system: LOX IMVI melanoma Read-out: growth Value: ?
*A* 104

*Q* Item: Fc1ccc2nc3c(cc2c1)CSc1nnc(-c2ccc[nH]c2=S)n1N3 Test system: LOX IMVI melanoma Read-out: growth Value: ?
*A* 96.1

*Q* Item: COc1cccc(CCC(=O)c2cc3c(N)c(C(=O)Nc4ccccc4)sc3nc2C)c1 Test system: LOX IMVI melanoma Read-out: growth Value: ?
*A* 26.4

*Q* Item: CN(Cc1ccccc1)c1nc(Cl)c(C2CC(c3ccc(Cl)cc3)=Cc3[nH][nH]c(=O)c32)s1 (stereo not drawn) Test system: LOX IMVI melanoma Read-out: growth Value: ?
*A* 79.9

*Q* Item: O=C1c2ccccc2-c2c1c1c(NCCCO)nc3ccccc3c1n2Cc1ccccc1 Test system: LOX IMVI melanoma Read-out: growth Value: ?
*A* 2.25

*Q* Item: COc1ccc(C(=O)c2cc3c(N)c(C(=O)Nc4cccc(OC)c4)sc3nc2C)cc1 Test system: LOX IMVI melanoma Read-out: growth Value: ?
*A* 36.6

*Q* Item: COc1ccc(C(O)c2cc3c(N)c(C(=O)Nc4ccc(Cl)cc4)sc3nc2C)cc1 (stereo not drawn) Test system: LOX IMVI melanoma Read-out: growth Value: ?
*A* 29.2

*Q* Item: CC(C)(C)OC(=O)N1C/C(=C\c2ccoc2)C(=O)/C(=C/c2ccoc2)C1 Test system: LOX IMVI melanoma Read-out: growth Value: ?
*A* 90.7

*Q* Item: COc1ccccc1C(C[N+](=O)[O-])c1c(-c2ccccc2)[nH]c2cc(C)ccc12 (stereo not drawn) Test system: LOX IMVI melanoma Read-out: growth Value: ?
*A* 70.1

*Q* Item: Clc1nc(Cl)c2ncn(CC3(Cn4cnc5c(Cl)nc(Cl)nc54)COC3)c2n1 Test system: LOX IMVI melanoma Read-out: growth Value: ?
*A* -89.2

*Q* Item: N#C/C(=C\c1ccc(Br)cc1)n1nnc2cccc(F)c21 Test system: LOX IMVI melanoma Read-out: growth Value: ?
*A* -56.3

*Q* Item: COC(=O)Nc1nc2ccc(C(=O)c3cccc(I)c3)cc2[nH]1 Test system: LOX IMVI melanoma Read-out: growth Value: ?
*A* 16.6

*Q* Item: COC(=O)Nc1ccc(NC(=O)OC)cc1 Test system: LOX IMVI melanoma Read-out: growth Value: ?
*A* 99

*Q* Item: COc1ccc(/C=N/C2=C(C#N)C(c3ccccc3[N+](=O)[O-])c3ccc4ccccc4c3O2)cc1 (stereo not drawn) Test system: LOX IMVI melanoma Read-out: growth Value: ?
*A* 90.3

*Q* Item: CCCc1cc2c(cc1Br)OCO2 Test system: LOX IMVI melanoma Read-out: growth Value: ?
*A* 95.2

*Q* Item: CC(C)NC(=O)N1C(=O)CCC1NNC(=O)c1ccc([N+](=O)[O-])cc1 (stereo not drawn) Test system: LOX IMVI melanoma Read-out: growth Value: ?
*A* 93.9
